Values were extracted from ChEMBL document CHEMBL5046217.

Record type: IC50 measurement. Applies to: Fibroblast growth factor receptor 1 (Homo sapiens)
Give bare numbers, in µM.

{"item-smiles": "COc1cccc(-c2nc3sccn3c2-c2ccnc(NCCNS(=O)(=O)c3ccc(C(F)(F)F)cc3)n2)c1", "u": "µM", "IC50": 15.6}
{"item-smiles": "CN1CCN(CCNc2nccc(-c3c(-c4cccc(O)c4)nc4sccn34)n2)S1(=O)=O", "u": "µM", "IC50": 13.5}

The record that follows has no IC50 shown yet.
Param item = `COc1cccc(-c2nc3sccn3c2-c2ccnc(NCCCNS(=O)(=O)c3cccc(F)c3)n2)c1` ; retrieve measured IC50.
11.8

* * *

Could you please report measured IC50 for the items listed next?
system-tested: RAF proto-oncogene serine/threonine-protein kinase (Homo sapiens)
Sequence (P04049 whole entry): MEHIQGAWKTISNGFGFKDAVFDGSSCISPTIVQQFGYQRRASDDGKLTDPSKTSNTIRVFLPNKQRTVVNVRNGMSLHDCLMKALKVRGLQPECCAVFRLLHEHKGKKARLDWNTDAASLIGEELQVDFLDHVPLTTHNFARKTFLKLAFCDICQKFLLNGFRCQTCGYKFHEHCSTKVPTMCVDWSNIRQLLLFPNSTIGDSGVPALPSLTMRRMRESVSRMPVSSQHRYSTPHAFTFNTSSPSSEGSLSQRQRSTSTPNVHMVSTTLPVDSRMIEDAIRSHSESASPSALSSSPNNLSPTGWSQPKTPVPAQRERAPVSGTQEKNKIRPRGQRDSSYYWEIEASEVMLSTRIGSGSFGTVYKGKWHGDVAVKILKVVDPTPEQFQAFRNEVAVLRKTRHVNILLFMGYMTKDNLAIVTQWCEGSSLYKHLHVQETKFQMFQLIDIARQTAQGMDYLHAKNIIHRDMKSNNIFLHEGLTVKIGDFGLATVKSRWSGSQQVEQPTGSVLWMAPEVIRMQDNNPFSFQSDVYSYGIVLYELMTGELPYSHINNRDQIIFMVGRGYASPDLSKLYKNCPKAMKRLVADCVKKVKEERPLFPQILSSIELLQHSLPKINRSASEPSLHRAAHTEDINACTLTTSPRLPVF
Numbers only, in nM.

Example results:
{"item-smiles": "COc1ccc(-c2nc3sccn3c2-c2ccnc(NCCNS(=O)(=O)c3ccc(OC)cc3)n2)cc1", "IC50 (nM)": 24300}
{"item-smiles": "COc1cccc(-c2nc3sccn3c2-c2ccnc(NCCN3CCCN(C)S3(=O)=O)n2)c1", "IC50 (nM)": 2.33}
{"item-smiles": "O=S1(=O)N(CCNc2nccc(-c3c(-c4cccc(O)c4)nc4sccn34)n2)CCN1Cc1ccccc1", "IC50 (nM)": 3.91}
{"item-smiles": "O=S(=O)(NCCCNc1nccc(-c2c(-c3cccc(O)c3)nc3sccn23)n1)c1cccc(F)c1", "IC50 (nM)": 5}
{"item-smiles": "O=S(=O)(NCCNc1nccc(-c2c(-c3ccc(O)cc3)nc3sccn23)n1)c1ccc(O)cc1", "IC50 (nM)": 19400}
{"item-smiles": "Cc1ccc(S(=O)(=O)NCCNc2nccc(-c3c(-c4cccc(O)c4)nc4sccn34)n2)cc1", "IC50 (nM)": 62}
{"item-smiles": "O=S1(=O)NCCCN1CCNc1nccc(-c2c(-c3cccc(O)c3)nc3sccn23)n1", "IC50 (nM)": 7.21}
{"item-smiles": "O=S(=O)(NCCNc1nccc(-c2c(-c3ccccc3)nc3sccn23)n1)c1ccc(F)cc1", "IC50 (nM)": 112}

Param item = `CN1CCN(CCNc2nccc(-c3c(-c4cccc(O)c4)nc4sccn34)n2)S1(=O)=O` ; retrieve measured IC50.
1.12

* * *

system-tested: Receptor-type tyrosine-protein kinase FLT3 (Homo sapiens, UniProt P36888)
Sequence (P36888 whole entry): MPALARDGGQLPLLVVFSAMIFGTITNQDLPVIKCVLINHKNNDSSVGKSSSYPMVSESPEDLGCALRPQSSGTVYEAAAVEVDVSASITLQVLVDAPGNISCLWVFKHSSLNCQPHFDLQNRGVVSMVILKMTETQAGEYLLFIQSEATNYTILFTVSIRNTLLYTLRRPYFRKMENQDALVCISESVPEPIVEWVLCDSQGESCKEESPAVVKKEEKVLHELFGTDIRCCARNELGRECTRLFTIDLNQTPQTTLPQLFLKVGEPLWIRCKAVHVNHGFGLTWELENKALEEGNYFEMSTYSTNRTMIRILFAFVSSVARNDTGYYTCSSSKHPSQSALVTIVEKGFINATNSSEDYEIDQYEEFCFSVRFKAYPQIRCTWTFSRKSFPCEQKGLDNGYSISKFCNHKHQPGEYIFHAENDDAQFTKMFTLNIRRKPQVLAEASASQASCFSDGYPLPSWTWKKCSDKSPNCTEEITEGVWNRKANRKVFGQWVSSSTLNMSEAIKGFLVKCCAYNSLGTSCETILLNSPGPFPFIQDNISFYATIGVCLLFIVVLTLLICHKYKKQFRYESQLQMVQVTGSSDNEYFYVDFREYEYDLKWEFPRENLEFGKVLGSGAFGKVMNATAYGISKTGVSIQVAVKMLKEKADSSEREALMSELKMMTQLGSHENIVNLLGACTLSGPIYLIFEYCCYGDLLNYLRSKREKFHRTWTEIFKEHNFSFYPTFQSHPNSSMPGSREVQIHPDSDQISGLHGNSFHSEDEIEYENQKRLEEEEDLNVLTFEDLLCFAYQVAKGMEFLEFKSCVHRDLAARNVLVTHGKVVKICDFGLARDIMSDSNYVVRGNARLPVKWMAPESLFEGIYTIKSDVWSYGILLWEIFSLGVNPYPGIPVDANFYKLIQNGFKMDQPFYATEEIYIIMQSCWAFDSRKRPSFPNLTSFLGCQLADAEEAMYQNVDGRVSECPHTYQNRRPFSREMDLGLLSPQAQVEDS
Could you please report measured IC50 for the items listed next?
Answers are plain numbers, in nM.

{"item-smiles": "O=S(=O)(NCCCNc1nccc(-c2c(-c3cccc(O)c3)nc3sccn23)n1)c1cccc(F)c1", "endpoint-result": 1480}
{"item-smiles": "COc1cccc(-c2nc3sccn3c2-c2ccnc(NCCNS(=O)(=O)c3ccc(C(F)(F)F)cc3)n2)c1", "endpoint-result": 2170}
{"item-smiles": "COc1cccc(-c2nc3sccn3c2-c2ccnc(NCCCNS(=O)(=O)c3cccc(F)c3)n2)c1", "endpoint-result": 2980}

Param item = `CN1CCN(CCNc2nccc(-c3c(-c4cccc(O)c4)nc4sccn34)n2)S1(=O)=O` ; retrieve measured IC50.
1510

* * *

Could you please report measured IC50 for the items listed next?
system-tested: Serine/threonine-protein kinase B-raf (Homo sapiens, UniProt P15056, V600E)
Sequence (P15056 2-766 V600E limits assumed): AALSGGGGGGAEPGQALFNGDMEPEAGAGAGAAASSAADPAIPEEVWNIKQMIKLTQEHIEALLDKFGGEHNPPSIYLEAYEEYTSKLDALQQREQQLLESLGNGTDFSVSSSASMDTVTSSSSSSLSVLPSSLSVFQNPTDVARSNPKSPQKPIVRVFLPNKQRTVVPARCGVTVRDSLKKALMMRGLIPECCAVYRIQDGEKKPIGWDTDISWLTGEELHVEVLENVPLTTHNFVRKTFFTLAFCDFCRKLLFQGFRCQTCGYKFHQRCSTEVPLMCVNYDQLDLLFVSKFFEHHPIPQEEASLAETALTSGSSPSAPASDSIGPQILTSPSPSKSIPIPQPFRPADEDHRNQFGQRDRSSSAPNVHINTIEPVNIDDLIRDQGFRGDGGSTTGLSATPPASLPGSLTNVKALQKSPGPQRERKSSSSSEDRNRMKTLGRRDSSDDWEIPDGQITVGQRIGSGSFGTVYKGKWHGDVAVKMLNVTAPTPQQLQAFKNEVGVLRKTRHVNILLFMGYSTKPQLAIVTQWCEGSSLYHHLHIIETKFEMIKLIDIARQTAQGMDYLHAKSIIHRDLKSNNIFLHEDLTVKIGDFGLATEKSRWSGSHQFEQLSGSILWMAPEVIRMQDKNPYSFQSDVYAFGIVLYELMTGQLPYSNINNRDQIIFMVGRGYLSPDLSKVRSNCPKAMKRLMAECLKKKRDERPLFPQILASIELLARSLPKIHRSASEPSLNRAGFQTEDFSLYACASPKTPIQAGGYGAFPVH
test-description: Inhibition of human BRAF V600E mutant using myelin basic protein as substrate in presence of [gamma-33P]ATP incubated for 40 mins by scintillation counting method
One number for each entry, in nM.

Example results:
{"item-smiles": "COc1cccc(-c2nc3sccn3c2-c2ccnc(NCCNS(=O)(=O)c3ccc(C)cc3)n2)c1", "system-tested": "Serine/threonine-protein kinase B-raf (Homo sapiens, UniProt P15056, V600E)", "IC50 / nM": 177}
{"item-smiles": "COc1cccc(-c2nc3sccn3c2-c2ccnc(NCCN3CCNS3(=O)=O)n2)c1", "system-tested": "Serine/threonine-protein kinase B-raf (Homo sapiens, UniProt P15056, V600E)", "IC50 / nM": 10.5}
{"item-smiles": "O=S(=O)(NCCCNc1nccc(-c2c(-c3ccccc3)nc3sccn23)n1)c1ccc(F)cc1", "system-tested": "Serine/threonine-protein kinase B-raf (Homo sapiens, UniProt P15056, V600E)", "IC50 / nM": 57.7}
{"item-smiles": "O=S(=O)(NCCCNc1nccc(-c2c(-c3cccc(O)c3)nc3sccn23)n1)c1cccc(F)c1", "system-tested": "Serine/threonine-protein kinase B-raf (Homo sapiens, UniProt P15056, V600E)", "IC50 / nM": 0.98}
{"item-smiles": "COc1cccc(-c2nc3sccn3c2-c2ccnc(NCCN3CCCN(C)S3(=O)=O)n2)c1", "system-tested": "Serine/threonine-protein kinase B-raf (Homo sapiens, UniProt P15056, V600E)", "IC50 / nM": 2.62}

Dear colleague, could you please provide IC50 for the compounds listed below?
1. COc1cccc(-c2nc3sccn3c2-c2ccnc(NCCCNS(=O)(=O)c3ccccc3)n2)c1
2. COc1cccc(-c2nc3sccn3c2-c2ccnc(NCCN3CCN(C)S3(=O)=O)n2)c1
3. Cc1ccc(S(=O)(=O)NCCNc2nccc(-c3c(-c4cccc(O)c4)nc4sccn34)n2)cc1

1: 109; 2: 1.51; 3: 55

Param item = `CN1CCN(CCNc2nccc(-c3c(-c4cccc(O)c4)nc4sccn34)n2)S1(=O)=O` ; retrieve measured IC50.
0.07

* * *

test-description: Stability in rat plasma assessed as parent compound remaining at 10 uM measured after 120 mins by LC-MS analysis
Assay type: ADME, cell-free
condition-notes: read-out: Stability
readout-name: remaining at 2 h, 10 µM (%)
Numbers only, in %.

Param item = `CN1CCN(CCNc2nccc(-c3c(-c4cccc(O)c4)nc4sccn34)n2)S1(=O)=O` ; retrieve measured remaining at 2 h, 10 µM.
76.6

* * *

Could you please report measured pIC50 for the items listed next?
system-tested: Serine/threonine-protein kinase B-raf (Homo sapiens, UniProt P15056, V600E)
test-description: Inhibition of human BRAF V600E mutant using myelin basic protein as substrate in presence of [gamma-33P]ATP incubated for 40 mins by scintillation counting method
Give bare numbers, as −log10 of the molar value.

{"item-smiles": "Cc1ccc(S(=O)(=O)NCCNc2nccc(-c3c(-c4ccccc4)nc4sccn34)n2)cc1", "pIC50": 7.05}
{"item-smiles": "O=S1(=O)NCCN1CCNc1nccc(-c2c(-c3cccc(O)c3)nc3sccn23)n1", "pIC50": 8.34}
{"item-smiles": "O=S(=O)(NCCCNc1nccc(-c2c(-c3cccc(O)c3)nc3sccn23)n1)c1ccccc1", "pIC50": 7.70}
{"item-smiles": "CC(C)(C)OC(=O)N1CCCN(CCNc2nccc(-c3c(-c4cccc(O)c4)nc4sccn34)n2)S1(=O)=O", "pIC50": 8.02}
{"item-smiles": "COc1cccc(-c2nc3sccn3c2-c2ccnc(NCCN3CC(C)(C)NS3(=O)=O)n2)c1", "pIC50": 8.06}

Dear colleague, could you please provide pIC50 for the compounds listed below?
1. CN1CCCN(CCNc2nccc(-c3c(-c4cccc(O)c4)nc4sccn34)n2)S1(=O)=O
2. COc1cccc(-c2nc3sccn3c2-c2ccnc(NCCN3CCN(Cc4ccccc4)S3(=O)=O)n2)c1

1: 8.42; 2: 8.08
